method: clinical
experimental_context: both, human, in vivo, po
parameter_measured: half-life (h)
Numbers only, in h.

Entry Cn1c(=O)c2[nH]cnc2n(C)c1=O , half-life reported as 9.69
